Each entry below carries its reported AC50.
Target: PKR R532W (Homo sapiens, UniProt P30613, R532W)
Sequence (P30613 whole entry R532W): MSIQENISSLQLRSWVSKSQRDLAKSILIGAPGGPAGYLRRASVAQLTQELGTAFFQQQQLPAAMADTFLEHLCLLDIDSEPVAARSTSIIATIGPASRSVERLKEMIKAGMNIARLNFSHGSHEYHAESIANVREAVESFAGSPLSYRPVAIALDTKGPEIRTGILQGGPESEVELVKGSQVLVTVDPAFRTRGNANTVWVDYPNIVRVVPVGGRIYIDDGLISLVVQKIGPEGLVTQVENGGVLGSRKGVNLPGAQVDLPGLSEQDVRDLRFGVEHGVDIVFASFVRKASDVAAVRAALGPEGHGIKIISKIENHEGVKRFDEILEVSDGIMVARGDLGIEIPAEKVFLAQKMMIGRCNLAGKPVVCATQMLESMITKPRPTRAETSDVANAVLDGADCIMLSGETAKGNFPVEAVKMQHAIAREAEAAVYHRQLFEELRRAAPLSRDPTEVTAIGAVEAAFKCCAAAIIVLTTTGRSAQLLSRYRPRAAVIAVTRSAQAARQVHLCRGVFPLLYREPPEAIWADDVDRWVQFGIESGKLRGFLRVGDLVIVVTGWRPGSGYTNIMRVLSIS
Assay: PKR Mutant Assay, dose response (AC50), PKR R532W
Type: biochemical
Conditions: PKR R532W mutant enzyme

Quote AC50 reported for "CC(C)(O)CCCC1(O)CCN(C(=O)c2ccc(NS(=O)(=O)c3cccc4scnc34)cc2)CC1" please. 1010 to 10000 nM

---

Each entry below carries its reported AC50.
Molecular target: wt PKR (Homo sapiens, UniProt P30613)
Sequence (P30613 whole entry): as the sequence (P30613 whole entry R532W) above, with W532R counted along it
Test: PKR Mutant Assay, dose response (AC50), wild type PKR enzyme
Format: biochemical
Settings: wild type PKR enzyme

Solved entries:
[[record]]
compound = "CC(C)CC1(O)CCN(C(=O)c2ccc(NS(=O)(=O)c3cccc4cncnc34)cc2)CC1"
value_measured = "101 to 1000 nM"

[[record]]
compound = "CC(C)CC1(OC(=O)OCOP(=O)(O)O)CCN(C(=O)c2ccc(NS(=O)(=O)c3cccc4scnc34)cc2)CC1"
value_measured = "101 to 1000 nM"

[[record]]
compound = "Nc1nc(CC2(O)CCN(C(=O)c3ccc(NS(=O)(=O)c4cccc5scnc45)cc3)CC2)cs1"
value_measured = "1010 to 10000 nM"


// next entry
Quote AC50 reported for O=C(c1ccc(NS(=O)(=O)c2cccc3nccnc23)cc1)N1CCC(O)(C2CCC(O)CC2)CC1 (stereo not shown) please. 101 to 1000 nM

---

Each entry below carries its reported AC50.
Target: PKR R510Q (Homo sapiens, UniProt P30613, R510Q)
Sequence (P30613 whole entry R510Q): as the sequence (P30613 whole entry R532W) above, with R510Q, W532R counted along it
Experiment: PKR Mutant Assay, dose response (AC50), PKR R510Q
Format: biochemical
Conditions: PKR R510Q mutant enzyme

Solved entries:
[[record]]
molecule = "Cc1noc(C)c1CC1(O)CCN(C(=O)c2ccc(NS(=O)(=O)c3cccc4nccnc34)cc2)CC1 [Compound 521]"
value_measured = "101 to 1000 nM"

[[record]]
molecule = "CC(C)CC1(N)CCN(C(=O)c2ccc(NS(=O)(=O)c3cccc4scnc34)cc2)CC1 [Compound 529]"
value_measured = "101 to 1000 nM"

[[record]]
molecule = "O=C(c1ccc(NS(=O)(=O)c2cccc3nccnc23)cc1)N1CCC(O)(c2ccns2)CC1 [Compound 517]"
value_measured = "101 to 1000 nM"

[[record]]
molecule = "CC(C)CC1(OC(=O)OCOP(=O)(O)O)CCN(C(=O)c2ccc(NS(=O)(=O)c3cccc4scnc34)cc2)CC1 [Compound 526]"
value_measured = "101 to 1000 nM"

[[record]]
molecule = "CN1CCC(C2(CO)CCN(C(=O)c3ccc(NS(=O)(=O)c4cccc5scnc45)cc3)CC2)C1=O (stereo not shown) [Compound 487]"
value_measured = "1010 to 10000 nM"


Quote AC50 reported for O=C(c1ccc(NS(=O)(=O)c2cccc3nccnc23)cc1)N1CCC(O)(Cc2nc(Cl)cs2)CC1 [Compound 494] please. 101 to 1000 nM

Quote AC50 reported for O=C(c1ccc(NS(=O)(=O)c2cccc3nccnc23)cc1)N1CCC(O)(Cc2cc[nH]n2)CC1 [Compound 500] please. 1010 to 10000 nM

---

Biological target: PKR R510Q (Homo sapiens, UniProt P30613, R510Q)
Experiment: PKR Mutant Assay, dose response (AC50), PKR R510Q
Type: biochemical
Conditions: PKR R510Q mutant enzyme
Procedure: • PKR or PKR mutant enzyme solution was diluted in assay buffer. • 2 μL of test compound was added into wells first, and then 180 μL reaction mix was added. • Reactions mixture with test compound was assembled except for ADP, and plates were stored for 60 minutes at room temperature. • 20 uL ADP was added to start reaction at room temperature and reaction progress was measured as changes in absorbance at 340 nm wavelength at room temperature. […]
Reported property: AC50

Solved entries:
[[record]]
molecule = "Cn1nccc1CC1(O)CCN(C(=O)c2ccc(NS(=O)(=O)c3cccc4nccnc34)cc2)CC1"
value_measured = "101 to 1000 nM"

[[record]]
molecule = "CCS(=O)(=O)CC1(O)CCN(C(=O)c2ccc(NS(=O)(=O)c3cccc4scnc34)cc2)CC1"
value_measured = "> 10000 nM"

[[record]]
molecule = "Cc1n[nH]c(C)c1CC1(O)CCN(C(=O)c2ccc(NS(=O)(=O)c3cccc4scnc34)cc2)CC1"
value_measured = "101 to 1000 nM"

[[record]]
molecule = "Cc1nscc1CC1(O)CCN(C(=O)c2ccc(NS(=O)(=O)c3cccc4ncsc34)cc2)CC1"
value_measured = "< 100 nM"

[[record]]
molecule = "O=C(c1ccc(NS(=O)(=O)c2cccc3nccnc23)cc1)N1CCC(O)(c2sncc2Cl)CC1"
value_measured = "101 to 1000 nM"

[[record]]
molecule = "CC(F)(F)CCC1(O)CCN(C(=O)c2ccc(NS(=O)(=O)c3cccc4nccnc34)cc2F)CC1"
value_measured = "101 to 1000 nM"

[[record]]
molecule = "O=C1NCCC1CC1(O)CCN(C(=O)c2ccc(NS(=O)(=O)c3cccc4nccnc34)cc2)CC1 (centres unmarked)"
value_measured = "> 10000 nM"

[[record]]
molecule = "Nc1cnc2c(S(=O)(=O)Nc3ccc(C(=O)N4CCC(O)(c5cccc(F)c5F)CC4)cc3)cccc2n1"
value_measured = "< 100 nM"

[[record]]
molecule = "CS(=O)(=O)CCC1(O)CCN(C(=O)c2ccc(NS(=O)(=O)c3cccc4scnc34)cc2)CC1"
value_measured = "> 10000 nM"

[[record]]
molecule = "O=C(c1ccc(NS(=O)(=O)c2cccc3scnc23)cc1)N1CCC(O)(c2nc(Cl)cs2)CC1"
value_measured = "1010 to 10000 nM"


// next entry
Quote AC50 reported for CC1(O)CCC(C2(O)CCN(C(=O)c3ccc(NS(=O)(=O)c4cccc5nccnc45)cc3)CC2)CC1 (centres unmarked) please. 101 to 1000 nM
